biological target: E. coli DNA gyrase (Escherichia coli, UniProt P0AES4+P0AES6); construct: made in house; type: biochemical; details: 50-compound library screen, 50 μM compound, mean of duplicates
Sequence (P0AES4 whole entry, one chain of several): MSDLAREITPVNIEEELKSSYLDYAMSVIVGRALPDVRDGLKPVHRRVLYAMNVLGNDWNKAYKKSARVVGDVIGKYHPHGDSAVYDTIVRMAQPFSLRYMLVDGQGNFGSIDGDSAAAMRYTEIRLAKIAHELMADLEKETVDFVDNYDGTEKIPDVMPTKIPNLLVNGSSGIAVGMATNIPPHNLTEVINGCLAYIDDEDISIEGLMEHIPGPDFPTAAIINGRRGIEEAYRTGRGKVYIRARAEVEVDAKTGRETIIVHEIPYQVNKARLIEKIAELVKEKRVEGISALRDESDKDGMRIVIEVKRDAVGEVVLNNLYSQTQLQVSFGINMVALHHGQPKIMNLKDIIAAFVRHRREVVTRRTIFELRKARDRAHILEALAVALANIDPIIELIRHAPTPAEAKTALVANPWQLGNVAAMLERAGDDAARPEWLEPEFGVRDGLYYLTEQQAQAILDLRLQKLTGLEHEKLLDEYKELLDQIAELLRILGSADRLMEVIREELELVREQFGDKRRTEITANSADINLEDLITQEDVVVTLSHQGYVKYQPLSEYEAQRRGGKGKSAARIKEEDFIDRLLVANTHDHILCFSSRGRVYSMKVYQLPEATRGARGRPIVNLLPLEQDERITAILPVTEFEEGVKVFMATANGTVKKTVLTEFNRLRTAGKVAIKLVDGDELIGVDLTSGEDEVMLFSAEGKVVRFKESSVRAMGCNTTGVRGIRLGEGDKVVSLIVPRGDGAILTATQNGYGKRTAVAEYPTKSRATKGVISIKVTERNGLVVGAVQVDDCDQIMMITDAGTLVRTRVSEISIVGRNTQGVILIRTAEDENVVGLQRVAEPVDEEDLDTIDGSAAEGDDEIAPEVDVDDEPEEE
Positions of bridges follow the written chain, without caps; N, C: chain ends. Non-standard residues stand in square brackets, D forms with d. Residues, ends and D or L forms follow the SMILES beside them. *: point of attachment. Ileψ(thiazoline)Cys = CC[C@H](C)[C@H](N)C1=N[C@H](C(=O)*)CS1; dOrn = NCCC[C@@H](N)C(=O)O
assay metric: Mean Fluorescent Intensity
Respond numerically, and do not add a unit to the figure.

compound="O=C[C@H](O)[C@@H](O)[C@H](O)[C@H](O)CO [D-glucose]" target="E. coli DNA gyrase (Escherichia coli, UniProt P0AES4+P0AES6)" reported_result=5214

Give the measured Mean Fluorescent Intensity of CN(C)[C@@H]1C(O)=C(C(N)=O)C(=O)[C@@]2(O)C(O)=C3C(=O)c4c(O)cccc4[C@@](C)(O)[C@H]3C[C@@H]12 [tertracycline] .
9757

Entry to check: O=C[C@H](O)[C@@H](O)[C@@H](O)CO [L-arabinose]
5928

Ok, now CC[C@H](C)[C@H](N)C1=N[C@H](C(=O)N[C@@H](CC(C)C)C(=O)N[C@H](CCC(=O)O)C(=O)N[C@H](C(=O)N[C@H]2CCCCNC(=O)[C@H](CC(N)=O)NC(=O)[C@@H](CC(=O)O)NC(=O)[C@H](Cc3cnc[nH]3)NC(=O)[C@@H](Cc3ccccc3)NC(=O)[C@H]([C@@H](C)CC)NC(=O)[C@@H](CCCN)NC2=O)[C@@H](C)CC)CS1 [bacitracin] ({Ileψ(thiazoline)Cys}-L[dE]IK[dOrn]I[dF]H[dD]N; lactam 4-C)
7138

Lookup O=C[C@H](O)[C@@H](O)[C@@H](O)[C@H](O)CO [D-galactose]
5194
